- Assay remarks: Absorption test, oral, rats, solution in buffer pH 7 (Example 16)
- Type: in vivo, Male Wistar rats
- Condition parameters: blood, 4 hrs., 50 mg/kg oral, rat, average of 6, read-out: Blood Concentration of the Compound
Assign concentration at 4 h to each entry below.
Enter your answer as a number in ng/mL; do not include the unit.

Inquiry: // lookup concentration at 4 h for `Cn1nncc1SCC1=C(C(=O)O)N2C(=O)[C@@H](NC(=O)CSc3nc(C[C@H](N)C(=O)O)c[nH]3)[C@H]2SC1`
Reply text: 400

Inquiry: Look up concentration at 4 h: `CC1=C(C(=O)O)N2C(=O)[C@@H](NC(=O)CSc3nc(C[C@H](N)C(=O)O)c[nH]3)[C@H]2SC1`
Reply text: 4000

Inquiry: State the recorded concentration at 4 h for this entry: `N[C@@H](Cc1c[nH]c(SCC(=O)N[C@@H]2C(=O)N3C(C(=O)O)=C(Cl)CS[C@H]23)n1)C(=O)O`
Reply text: 1800

Inquiry: Which concentration at 4 h is listed for `N[C@@H](Cc1c[nH]c(SCC(=O)N[C@@H]2C(=O)N3C(C(=O)O)=C(CSc4cnn[nH]4)CS[C@H]23)n1)C(=O)O` ?
Reply text: 10200

###

- Assay remarks: Absorption test, oral, rats, solution in buffer pH 7 (Example 16)
- Assay type: in vivo, Male Wistar rats
- Condition parameters: blood, 0.5 hr., 50 mg/kg oral, rat, average of 6, read-out: Blood Concentration of the Compound
Label 1 when concentration at 0.5 h is strictly below 5000 ng/mL; otherwise label -1.

Inquiry: is_below(concentration at 0.5 h, 5000 ng/mL) for `CC(=O)OCC1=C(C(=O)O)N2C(=O)[C@@H](NC(=O)CSc3nc(C[C@H](N)C(=O)O)c[nH]3)[C@H]2SC1` ?
Reply text: 1

Inquiry: # check: concentration at 0.5 h < 5000 ng/mL for `N[C@@H](Cc1c[nH]c(SCC(=O)N[C@@H]2C(=O)N3C(C(=O)O)=C(CSc4nc[nH]n4)CS[C@H]23)n1)C(=O)O`
Reply text: 1

Inquiry: Please indicate whether the reported concentration at 0.5 h of `Cc1nnc(SCC2=C(C(=O)O)N3C(=O)[C@@H](NC(=O)CSc4nc(C[C@H](N)C(=O)O)c[nH]4)[C@H]3SC2)o1` is strictly below 5000 ng/mL.
Reply text: -1

Inquiry: concentration at 0.5 h under 5000 ng/mL? Item: `CC1=C(C(=O)O)N2C(=O)[C@@H](NC(=O)CSc3nc(C[C@H](N)C(=O)O)c[nH]3)[C@H]2SC1`
Reply text: -1

Inquiry: Input `Cn1nnnc1SCC1=C(C(=O)O)N2C(=O)[C@@H](NC(=O)CSc3nc(C[C@H](N)C(=O)O)c[nH]3)[C@H]2SC1` ; condition: concentration at 0.5 h strictly below 5000 ng/mL. Does it hold?
Reply text: 1

Inquiry: Dear colleague, could you confirm whether concentration at 0.5 h of `Cn1nncc1SCC1=C(C(=O)O)N2C(=O)[C@@H](NC(=O)CSc3nc(C[C@H](N)C(=O)O)c[nH]3)[C@H]2SC1` falls below 5000 ng/mL? Thanks.
Reply text: 1

###

Exercise: for every item that follows, state its recorded MIC Value.
- Test system: Klebs. pneumoniae ATCC 10031
- Assay remarks: MIC (Table 4)
- Assay type: cell-based
- Condition parameters: 10^8 cells/ml; unit assumed
Write down the numeric answer in µg/mL and omit the unit.

Inquiry: Please report the recorded MIC Value for CC(=O)OCC1=C(C(=O)O)N2C(=O)[C@@H](NC(=O)CSc3nc(C[C@H](N)C(=O)O)c[nH]3)[C@H]2SC1 [Example 1] .
Reply text: 25

Inquiry: // returns reported MIC Value for input Cc1nnc(SCC2=C(C(=O)O)N3C(=O)[C@@H](NC(=O)CSc4nc(C[C@H](N)C(=O)O)c[nH]4)[C@H]3SC2)s1 [drawing 13]
Reply text: 25

Inquiry: Give the measured MIC Value of CC1=C(C(=O)O)N2C(=O)[C@@H](NC(=O)[C@H](N)c3ccccc3)[C@H]2SC1 [Cephalexin, reference compound] .
Reply text: 25

Inquiry: Given the entry Cn1nnnc1SCC1=C(C(=O)O)N2C(=O)[C@@H](NC(=O)CSc3nc(C[C@H](N)C(=O)O)c[nH]3)[C@H]2SC1 [drawing 11] , report its measured MIC Value.
Reply text: 12.5
